- TARGET_DESC: Glutamate receptor 2 (Homo sapiens, UniProt P42262)
- Sequence (P42262 whole entry, canonical isoform): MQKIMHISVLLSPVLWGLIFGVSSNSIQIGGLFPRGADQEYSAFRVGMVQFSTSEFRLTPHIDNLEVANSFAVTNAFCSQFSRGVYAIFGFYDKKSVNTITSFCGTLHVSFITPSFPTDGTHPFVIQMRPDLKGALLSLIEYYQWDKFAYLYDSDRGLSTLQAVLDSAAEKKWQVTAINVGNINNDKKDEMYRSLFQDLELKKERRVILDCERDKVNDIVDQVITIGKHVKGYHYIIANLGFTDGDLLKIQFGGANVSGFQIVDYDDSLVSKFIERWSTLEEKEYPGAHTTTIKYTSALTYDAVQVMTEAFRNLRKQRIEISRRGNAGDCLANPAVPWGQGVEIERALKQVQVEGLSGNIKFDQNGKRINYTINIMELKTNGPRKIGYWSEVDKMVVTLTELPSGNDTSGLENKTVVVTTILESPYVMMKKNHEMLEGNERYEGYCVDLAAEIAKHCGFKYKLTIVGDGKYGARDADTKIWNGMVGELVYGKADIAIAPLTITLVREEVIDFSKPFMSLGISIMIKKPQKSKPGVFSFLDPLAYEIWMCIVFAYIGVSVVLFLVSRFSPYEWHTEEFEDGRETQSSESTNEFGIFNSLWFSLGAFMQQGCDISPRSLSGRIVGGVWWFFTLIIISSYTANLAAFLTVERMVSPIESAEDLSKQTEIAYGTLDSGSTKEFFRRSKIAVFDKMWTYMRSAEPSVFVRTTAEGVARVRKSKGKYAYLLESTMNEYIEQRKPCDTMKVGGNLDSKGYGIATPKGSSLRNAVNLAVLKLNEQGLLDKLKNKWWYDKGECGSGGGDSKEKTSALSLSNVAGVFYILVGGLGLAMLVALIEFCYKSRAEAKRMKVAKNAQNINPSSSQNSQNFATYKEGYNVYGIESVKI
- EXPERIMENT_NOTES: Positive allosteric modulation of GluA2 (Q) flop isoform (unknown origin) expressed in HEK293 cells assessed as potentiation of glutamate-evoked calcium flux by fluo-4/AM dye-based fluorescence assay
- Type: cell-based
- MEASUREMENT_SETUP: read-out: EC50
EC50 values by entry

| MOLECULE | VALUE_MEASURED |
| --- | --- |
| Cc1ccc(Oc2ccc3c(c2)S(=O)(=O)NCN3C2CC2)cc1 | 3.19 µM |
| CN1CNS(=O)(=O)c2cc(Oc3ccccc3)ccc21 | 7.62 µM |
| COc1ccccc1Oc1ccc2c(c1)S(=O)(=O)NCN2C1CC1 | 15.6 µM |
| CC1N(C)c2ccc(Cl)cc2S(=O)(=O)N1C (stereo not given) | 18.7 µM |

With those in mind, consider the next molecule.
Short answer for "COc1ccccc1Oc1ccc2c(c1)S(=O)(=O)NCN2C" : EC50 was > 10 µM
